- System: CP297
- experimentalDetails: qHTS profiling for inhibitors of Plasmodium falciparum proliferation (AID 504749); further: nearly all actives have a fitted effect of over 60% in size
- testContext: P. falciparum in erythrocytes, SYBR Green DNA, 72 h; series mostly up to 28.7 µM
Inconclusive results are not listed. Calls of active or inactive are those of the source. The call rests on the fitted dose curve; in most records, active means well fitted inhibition curve with a large enough effect; inconclusive means small, poorly fitted or top-dose-only effect; inactive means flat fitted curve, though single readings scatter.
Respond only with the outcome that fits, drawn from 1 = active, -1 = inactive

Some solved cases for reference:
                                   compound  testsystem  classification
0  NC(=O)c1cc([N+](=O)[O-])cc([N+](=O)[O-])c1       CP297              -1
1  O=P1(N(CCCl)CCCl)NCCCO1 (configuration not stated)       CP297              -1
2  C[C@]12CCC(=O)C=C1CC[C@@H]1[C@@H]2CC[C@]2(C)C(=O)CC[C@@H]12       CP297              -1
3                     Clc1cccc(SC2CCNCC2)n1       CP297              -1
4  CCOC(=O)CC(SP(=S)(OC)OC)C(=O)OCC (configuration not stated)       CP297              -1

Input: Lab log entry: COC(=O)C(c1ccccc1)C1CCCCN1 (configuration not stated) — outcome as called in the assay?
Output: -1

Input: Field: outcome | Entry: CC(C)(C)NCC(O)c1ccccc1Cl (configuration not stated)
Output: 1

---

- experimentalDetails: qHTS assay for cell viability of HEK293 cells (AID 743288); further: on the % scale 0 is the no-effect control and ±100 the full control effect; nearly all actives have a fitted effect of over 50% in size
- testContext: ATP luminescence (CellTiter-Glo), 18 h, hits give low values
Records with an inconclusive call do not appear.
Here, each record is paired with measured max response data.
Entry rule: numbers only, all in %.

Take a look at these entries with their results.
>>> print(df.to_string())
                                   compound  readingunit  experimentalresult
0                      Nc1nc(N)nc(NC2CC2)n1            %               -3.61
1                       CC(C)(C)c1ccc(O)cc1            %                3.38
2  CC1(C)C(C=C(Cl)Cl)C1C(=O)OC(C#N)c1cccc(Oc2ccccc2)c1 (stereo not given)            %                -3.3

GET /value?item= COP(=S)(OC)SCN1C(=O)c2ccccc2C1=O &field=max response returns -19.3

The recorded max response for CC(C)NC(C)C is 4.29

---

- experimentalDetails: Immunotoxin (SS1P) sensitization/mitigation study. Vehicle arm (DMEM) (AID 1159513)
- testContext: cell viability with vehicle (DMEM); series mostly up to 46.1 µM
Calls of active or inactive are those of the source. How the calls were made is not given here.
Tick one outcome: Yes = active, No = inactive

Previously resolved entries follow.
>>> df
                                   compound  classification
0                     S=c1nc[nH]c2nc[nH]c12             Yes
1  Cc1ccc(Nc2nccc(N(C)c3ccc4c(C)n(C)nc4c3)n2)cc1S(N)(=O)=O             Yes
2  Nc1nc2[nH]cc(CCc3ccc(C(=O)N[C@@H](CCC(=O)O)C(=O)O)cc3)c2c(=O)[nH]1             Yes
3  O=P1(N(CCCl)CCCl)NCCCO1 (stereo not given)              No

Input: # lookup: test call for Nc1nc(Cl)nc2c1ncn2[C@H]1C[C@H](O)[C@@H](CO)O1
Output: Yes
